assay: Oral bioavailability in mouse at 2 mg/kg, po; type: ADME, organism-based; conditions: in vivo
quantity.kind: bioavailability
Please state the value followed by its unit.

# bioavailability lookup, item CC(C)(C(=O)O)c1ccc(-c2ccccc2)c(F)c1
81%

###

experiment: Tmax in mouse at 2 mg/kg, po; assay type: ADME, organism-based; set-up: dose 2 mg/kg, route oral; details: in vivo
quantity.kind: Tmax (min)
Lab book: enter the figure in min, no units written.

# Tmax lookup, item CC(C)(C(=O)O)c1ccc(-c2ccccc2)c(F)c1
15

###

assay: Volume of distribution in mouse at 2 mg/kg, iv; format: ADME, organism-based; set-up: dose 2 mg/kg, route intravenous; details: in vivo, read-out: Vdss
quantity.kind: Vd (L/kg)
Lab book: enter the figure in L/kg, no units written.

# Vd lookup, item CC(C)(C(=O)O)c1ccc(-c2ccccc2)c(F)c1
0.22
